Target: proMMP9(67-444;ΔFnII) (SEQ ID NO:5) (Homo sapiens, UniProt P14780, DEL216-390)
Construct: start methionine (N)
Sequence (P14780 with tags, fused parts or gaps DEL216-390): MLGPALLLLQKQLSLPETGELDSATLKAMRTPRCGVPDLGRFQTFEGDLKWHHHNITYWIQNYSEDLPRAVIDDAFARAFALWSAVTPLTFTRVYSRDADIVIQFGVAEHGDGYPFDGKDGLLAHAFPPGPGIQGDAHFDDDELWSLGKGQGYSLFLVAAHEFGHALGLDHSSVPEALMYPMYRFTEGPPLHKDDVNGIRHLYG
Assay: ThermoFluor binding assay with proMMP9(67-444;ΔFnII)
Details: pH 7.0
Recorded measurements of pKd, one per entry
// pKd: -log10(molar conc.)

# annotated cases, reported pKd shown
Cc1nc(C)c(-c2nc(Nc3cc(S(N)(=O)=O)ccc3OC(C)C)sc2C)s1; 5.19
COc1ccc(S(N)(=O)=O)cc1Nc1nc(-c2sc(NC(C)=O)nc2C)cs1; 5.92
CC(=O)Nc1nc(C)c(-c2csc(Nc3cc(C#N)ccc3OC(C)C)n2)s1; 6.48

Notebook: CCOc1ccc(-c2ncco2)cc1Nc1nc(-c2sc(NC(C)=O)nc2C)cs1 , pKd read as 6.32

Notebook: CC(=O)Nc1nc(C)c(-c2csc(Nc3cccc4c3OCCO4)n2)s1 , pKd read as 4.96

Notebook: COc1ccc([N+](=O)[O-])cc1Nc1nc(-c2sc(NC(C)=O)nc2C)cs1 , pKd read as 6.26

Notebook: Cc1nc(C(=O)O)sc1-c1csc(Nc2cc(C(N)=O)ccc2OC(C)C)n1 , pKd read as 6.49

Notebook: Cc1nc(N)sc1-c1csc(Nc2cc(C(N)=O)ccc2OC(C)C)n1 , pKd read as 6.80

Values compiled from patent US20120129842A1.
